B1: library; a variant is named by its letters at N, in order (parent)
chain: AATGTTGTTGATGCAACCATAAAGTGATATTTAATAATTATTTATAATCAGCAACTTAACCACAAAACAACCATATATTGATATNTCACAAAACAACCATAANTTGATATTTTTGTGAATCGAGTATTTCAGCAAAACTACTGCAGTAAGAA

Variants of: B1
experiment description: relative integration efficiency (T-LR orientation) vs wild-type transposon end (log2 (normalized fold change)); transposon end mutated: left end; higher = more efficient transposition
condition: with VchCAST RNA-guided transposition machinery (E. coli BL21(DE3) host, lacZ target)
Label F if relative integration efficiency (log2) falls below -0.2; label T in every other case.

Here are 6 variants together with their reported answers.
variant descriptor	assigned class
TA G24A T30A T76A T78G C87A T104A T110A T113A	T
TA A16C G24T T32G A33C T76A T78A T84A C87A T104G T113A	T
CG T12A G13A T30A T31C T32A	F
CA A23G G24T A33T A96C T112G T113C	F
TA A16C G24T T30A T76A T78A T84A C87A A102T T111C T113C	F
CG T104G T105G G106T A107C	F

Threshold query (relative integration efficiency (log2) >= -0.2) on CG A34C A36G T38C A40G T42C A62G A65G A66C
F

Check CG A91T A92T too.
T

Check CC T104A T105A G106C too.
F

Check TG A23G G24T A33T T76A T78A T84A C87A too.
T

Check CG T57A A58T too.
F

Check CG A73T T74A too.
F

Check CG T31G T32G A33C A34C too.
F

Check CG C68A A69C too.
T

Check CG T9G G10T A11C T12G too.
F

Check CG G13A too.
T

Check CG C52G too.
T

Check CA A16C G24T T30A A102T T111C T113C too.
F

Check CG C14G A15T A16T C17G too.
F

Check CG T32A A77C T86G too.
F

Check CG G115T T116G too.
T

Check CG T48A C49G A50T G51C too.
F

Check CG G51C too.
F

Check TG T76A T78G C87A too.
T

Check CG G51T C52A A53C A54C too.
F

Check CT A102C T104G T105G too.
F

Check TG A22T G24T T31C A33C A70C T76A T86G too.
F

Check CG A88T C89G A90T A91T too.
F

Check CG G115A too.
T
